Target: EP4 (Homo sapiens (Human))
Sequence (P35408 whole entry): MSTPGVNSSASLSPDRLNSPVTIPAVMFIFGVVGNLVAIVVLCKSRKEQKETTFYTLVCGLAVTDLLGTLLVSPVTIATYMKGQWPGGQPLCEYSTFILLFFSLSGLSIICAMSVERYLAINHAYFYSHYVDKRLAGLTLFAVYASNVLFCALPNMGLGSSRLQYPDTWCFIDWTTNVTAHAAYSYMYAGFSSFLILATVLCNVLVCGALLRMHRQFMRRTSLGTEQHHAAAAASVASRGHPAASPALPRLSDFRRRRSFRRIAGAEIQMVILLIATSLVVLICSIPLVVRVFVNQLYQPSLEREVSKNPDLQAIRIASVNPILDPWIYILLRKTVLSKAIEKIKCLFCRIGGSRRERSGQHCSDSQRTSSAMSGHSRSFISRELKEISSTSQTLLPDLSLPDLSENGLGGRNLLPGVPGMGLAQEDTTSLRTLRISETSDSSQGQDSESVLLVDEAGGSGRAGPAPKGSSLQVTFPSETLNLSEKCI
Experiment: hEP4 cAMP assay (BT549 breast cancer cells, HTRF cAMP)
Format: cell-based
Conditions: antagonistic activity; mean values where measured multiple times
pIC50: −log10 of the molar value.
Please enter 1 where pIC50 is greater than or equal to 7, and -1 where it is lower.

These recorded examples may help you get a feel for the data.
{"molecule": "Cc1ccc(Cl)c2c1cc(C)n2CCNc1cc(-c2ccc(C(=O)O)c(SC(C)C)c2)ncn1", "category": -1}
{"molecule": "CCCCOc1cc(-c2cc(NCCn3c(C)cc4c(OC)ccc(F)c43)ncn2)sc1C(=O)O", "category": 1}
{"molecule": "COc1cc(F)cc2c1cc(C)n2CCNc1cc(-c2ccc(-c3ncc(C)n3C)cc2)ncn1", "category": -1}
{"molecule": "COc1c(F)ccc2c1cc(C)n2CCNc1cc(-c2ccc(C(=O)O)c(CC(C)C)c2)ncn1", "category": -1}
{"molecule": "CCOc1cc(-c2cc(NCCn3c(C)cc4c5c(cc(Cl)c43)OCO5)ncn2)ccc1C(=O)O", "category": -1}
{"molecule": "Cc1noc(-c2ccc(-c3cc(NCCn4c(C)cc5c(C)ccc(F)c54)ncn3)cc2)c1C(=O)O", "category": -1}

Hi team, for CCOc1cc(-c2cc(NCCn3c(C)cc4c(OC)ccc(Cl)c43)ncn2)ccc1C(=O)O , is the recorded pIC50 at or above 7? -1

Say whether CCCc1cc(-c2cc(NCCn3c(C)cc4cc(OC)cc(F)c43)ncn2)cc(F)c1C(=O)O shows pIC50 of 7 or more. -1

Check this molecule for pIC50 at or above 7: Cc1cc2c(Cl)cc(F)cc2n1CCNc1cc(-c2ccc(C(=O)O)c(CC(C)C)c2)ncn1 -1

Dear colleague, could you confirm whether Cc1ccc(F)c2c1cc(C)n2CCNc1cc(-c2ccc(-n3cncn3)cc2)ncn1 has pIC50 at or above 7? -1

Hello, I need to know if Cc1cc2c(Cl)cc(Cl)cc2n1CCNc1cc(-c2ccc(C(=O)O)c(CC(C)C)c2)ncn1 has measured pIC50 not below 7. Thanks! -1

Dear colleague, could you confirm whether COc1cc(F)cc2c1cc(C)n2CCNc1cc(-c2ccc(-c3ccccn3)cc2)ncn1 has pIC50 at or above 7? -1

Is the recorded value of pIC50 equal to or greater than 7 for this molecule? COc1cccc2c1cc(C)n2CCNc1cc(-c2ccc3c(c2)C(CC(C)C)NC3=O)ncn1 (racemic) -1

Quick check, pIC50 >= 7? CCCOc1cc(-c2cc(NCCn3c(C)cc4c(C)cc(Cl)cc43)ncn2)cc(Cl)c1C(=O)O -1

Does COc1ccc(F)c2c1cc(C)n2CCNc1cc(-c2ccc(-c3cc(C(=O)O)[nH]n3)cc2)ncn1 have a reported pIC50 of at least 7? 1

Say whether Cc1ccc(F)c2c1cc(C)n2CCNc1cc(-c2ccc(-c3nc(C(=O)O)cs3)cc2)ncn1 shows pIC50 of 7 or more. 1

Item Cc1cc2c(F)c(F)ccc2n1CCNc1cc(-c2ccc(C(=O)O)c(CC(C)C)c2)ncn1 with pIC50 of 7 or above? -1

Please check the record COc1cc(-c2cc(NCCn3c(C)cc4c(C)ccc(F)c43)ncn2)ccc1-c1nnn[nH]1 and state if its pIC50 is at or above 7. -1
